B1: Protein PTHB1 (Homo sapiens), Q3SYG4 (parent)
chain: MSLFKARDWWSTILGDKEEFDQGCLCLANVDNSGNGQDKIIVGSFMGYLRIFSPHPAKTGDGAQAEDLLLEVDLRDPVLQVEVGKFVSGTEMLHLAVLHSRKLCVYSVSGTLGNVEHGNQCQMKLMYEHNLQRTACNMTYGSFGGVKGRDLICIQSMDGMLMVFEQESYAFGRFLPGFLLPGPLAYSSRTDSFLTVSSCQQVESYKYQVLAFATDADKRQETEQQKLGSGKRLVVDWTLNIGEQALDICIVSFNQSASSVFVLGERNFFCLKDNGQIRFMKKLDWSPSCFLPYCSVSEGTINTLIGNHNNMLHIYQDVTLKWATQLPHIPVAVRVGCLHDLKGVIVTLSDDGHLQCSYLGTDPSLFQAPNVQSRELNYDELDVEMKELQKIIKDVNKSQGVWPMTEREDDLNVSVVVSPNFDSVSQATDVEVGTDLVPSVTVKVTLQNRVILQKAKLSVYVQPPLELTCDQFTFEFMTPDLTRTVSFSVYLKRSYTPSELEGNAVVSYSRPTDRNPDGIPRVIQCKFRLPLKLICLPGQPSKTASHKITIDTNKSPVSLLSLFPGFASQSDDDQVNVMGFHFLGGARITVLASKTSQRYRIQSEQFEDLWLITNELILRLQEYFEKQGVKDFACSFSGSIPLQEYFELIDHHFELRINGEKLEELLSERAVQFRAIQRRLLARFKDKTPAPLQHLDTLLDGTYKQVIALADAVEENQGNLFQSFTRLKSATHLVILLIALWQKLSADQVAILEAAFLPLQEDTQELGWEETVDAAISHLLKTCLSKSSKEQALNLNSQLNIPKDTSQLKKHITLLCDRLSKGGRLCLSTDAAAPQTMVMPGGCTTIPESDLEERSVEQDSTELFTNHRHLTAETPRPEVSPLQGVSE
partner: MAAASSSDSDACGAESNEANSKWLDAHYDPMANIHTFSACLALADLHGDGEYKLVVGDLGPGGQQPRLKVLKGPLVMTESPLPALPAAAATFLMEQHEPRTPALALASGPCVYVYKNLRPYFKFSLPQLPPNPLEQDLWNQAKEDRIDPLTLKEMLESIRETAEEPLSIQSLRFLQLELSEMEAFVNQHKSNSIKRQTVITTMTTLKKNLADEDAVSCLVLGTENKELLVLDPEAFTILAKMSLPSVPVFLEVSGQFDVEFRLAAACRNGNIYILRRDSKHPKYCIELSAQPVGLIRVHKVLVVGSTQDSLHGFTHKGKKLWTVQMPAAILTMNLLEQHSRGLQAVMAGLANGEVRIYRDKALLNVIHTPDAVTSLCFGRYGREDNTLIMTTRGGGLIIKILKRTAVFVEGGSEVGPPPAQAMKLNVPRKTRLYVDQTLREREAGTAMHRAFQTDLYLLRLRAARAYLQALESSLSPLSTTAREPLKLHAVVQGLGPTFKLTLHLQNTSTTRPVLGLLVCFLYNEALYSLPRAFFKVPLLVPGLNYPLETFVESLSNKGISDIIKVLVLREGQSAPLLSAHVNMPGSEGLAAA

Variants of: B1
conditionDescription: with bbs1_human BBS1, Q8NFJ9
propertyLabel: effect of a mutation on the interaction

Previously resolved entries follow.
[in] Field request: effect of a mutation on the interaction | item: "S418A"
[out] with no effect

[in] Which effect of a mutation on the interaction is reported for this variant? "N412E"
[out] with no effect

[in] Tell me the measured effect of a mutation on the interaction of "I751E" , please.
[out] with no effect

[in] Please look up its effect of a mutation on the interaction: "T829A"
[out] with no effect

[in] Could you share which effect of a mutation on the interaction value was measured for "Q605K" ?
[out] with no effect

Here is the next item to consider.
[in] I have this variant here, "S745K" , and I need its recorded effect of a mutation on the interaction.
[out] with no effect
